tested on: CALU6; experiment: Cell growth inhibition (CellTiter-Glo), NSCLC line CALU6; type: cell-based; details: CALU6 non-small cell lung cancer cell line, 4 days
endpoint_name: IC50

Lab book: IC50 of Cc1sc2c(c1C)C(c1ccc(Cl)cc1)=N[C@@H](CC(=O)NCCCCNC(=O)COc1cccc3c1C(=O)N(C1CCC(=O)NC1=O)C3=O)c1nnc(C)n1-2 (stereo partly shown) [dBET1, reference compound] noted as > 5 µM

###

system: AML-5; experiment: Cell growth inhibition (CellTiter-Glo), leukemia line AML-5; assay type: cell-based; details: AML-5 leukemia cell line
endpoint_name: pIC50
Notebook: values listed as pIC50 are -log10 of the concentration (mol/L).

GET /values?item= CCn1nc(C2CC2)cc1Nc1nc(C(=O)NCCCOCCOCCOCCCNc2cccc3c2C(=O)N(C2CCC(=O)NC2=O)C3=O)nc2[nH]c3cc(-c4c(C)noc4C)c(OC)cc3c12 (stereo not shown) [Cpd. No. 4] &system= AML-5 returns pIC50: 6.30

###

tested on: SKCO-1; experiment: Cell growth inhibition (CellTiter-Glo), colon cancer line SKCO-1; type: cell-based; conditions: Homo sapiens, SK-CO-1; SKCO-1 colon cancer cell line
endpoint_name: pIC50
Value format note: pIC50 is -log10 of concentration (mol/L); just state the number.

Please review the following examples before continuing.
compound	pIC50
CCn1nc(C2CC2)cc1Nc1nc(C(=O)NCCCCNc2cccc3c2C(=O)N(C2CCC(=O)NC2=O)C3=O)nc2[nH]c3cc(-c4c(C)noc4C)c(OC)cc3c12 (stereo not drawn) [Cpd. No. 9]	7.64
CCn1nc(C2CC2)cc1Nc1nc(COC)nc2[nH]c3cc(-c4c(C)noc4C)c(OC)cc3c12 [Cpd. A, reference compound]	5.97

The reported pIC50 of the compound CCn1nc(C2CC2)cc1Nc1nc(C(=O)NCCCOCCOCCOCCCNc2cccc3c2C(=O)N(C2CCC(=O)NC2=O)C3=O)nc2[nH]c3cc(-c4c(C)noc4C)c(OC)cc3c12 (stereo not drawn) [Cpd. No. 4] was 8.10

###

tested on: H520; experiment: Cell growth inhibition (CellTiter-Glo), NSCLC line H520; type: cell-based; details: Homo sapiens, NCI-H520, 96 h; H520 non-small cell lung cancer cell line, 4 days
Reported IC50 values for the following compounds.
Quote the value and follow it with the unit of measurement.

In the examples that follow, each entry is paired with its recorded IC50.
compound	IC50
CCn1nc(C2CC2)cc1Nc1nc(C(=O)NCCCCNc2cccc3c2C(=O)N(C2CCC(=O)NC2=O)C3=O)nc2[nH]c3cc(-c4c(C)noc4C)c(OC)cc3c12 (stereo not drawn)	11 nM
CCn1nc(C2CC2)cc1Nc1nc(C(=O)NCCCOCCOCCOCCCNc2cccc3c2C(=O)N(C2CCC(=O)NC2=O)C3=O)nc2[nH]c3cc(-c4c(C)noc4C)c(OC)cc3c12 (stereo not drawn)	3 nM

Proceed to the following item.
Entry CCn1nc(C2CC2)cc1Nc1nc(COC)nc2[nH]c3cc(-c4c(C)noc4C)c(OC)cc3c12 [Cpd. A, reference compound] ; IC50 = 280 nM

###

test system: MDA-MB-453; assay: Cell growth inhibition (CellTiter-Glo), breast cancer line MDA-MB-453; assay type: cell-based; settings: MDA-MB-453 breast cancer cell line, 4 days
endpoint_name: IC50

Let me check: Cc1sc2c(c1C)C(c1ccc(Cl)cc1)=N[C@@H](CC(=O)NCCCCNC(=O)COc1cccc3c1C(=O)N(C1CCC(=O)NC1=O)C3=O)c1nnc(C)n1-2 (stereo partly shown) [dBET1, reference compound] , system MDA-MB-453, measured IC50 is > 5 µM
